- measured-target: EcSSB W136D (Escherichia coli, UniProt P0AGE0 1-178, W136D)
- method-summary: fluorescence polarization; n = 1.7; 20 mM Tris-acetate pH 8, 50 mM K-glutamate, 10 mM Mg-acetate, 25 C; 10 nM labeled oligo, SSB concentrations as tetramers
- test-conditions: protein: recombinant; tags: N-terminal His6-TEV, removed; chain copies: 4; label: fluorescein
pKd: −log10 of the molar value.
property-name: pKd

Query: Field request: pKd | item: dT79 (ssDNA) DNA: TTTTTTTTTTTTTTTTTTTTTTTTTTTTTTTTTTTTTTTTTTTTTTTTTTTTTTTTTTTTTTTTTTTTTTTTTTTTTTT
Result: > 8.00
